# PROTOCOL: Microsomal stability assay, mouse
# Type: in vitro ADME
# CONDITION INFO: pH 7.4, mouse liver microsomes
MEASUREMENT LABEL: half-life at 0.5 μM

                                        mol  value_measured
0  COc1cc(-c2cccc3[nH]c(-c4c[nH]c5ccccc45)nc23)cc(OC)c1OC        53.5 min

---

# PROTOCOL: Microsomal stability assay, human
# Format: in vitro ADME
# CONDITION INFO: human, pooled liver microsomes, pH 7.4, human liver microsomes
MEASUREMENT LABEL: half-life at 0.5 μM (min)

>>> print(df.to_string())
                                        mol  value_measured
0  COc1cc(-c2cccc3[nH]c(-c4c[nH]c5ccccc45)nc23)cc(OC)c1OC              51

FYI, the data here is from patent US10155728B2.
